Target: human IL-12 receptor (IL-12Rβ1 and IL-12Rβ2) on HEK-Blue IL-12 cells (human, UniProt P42701 24-662; Q99665 24-862)
Sequence (Q99665 24-862, chain 2 of 2, other chains not shown): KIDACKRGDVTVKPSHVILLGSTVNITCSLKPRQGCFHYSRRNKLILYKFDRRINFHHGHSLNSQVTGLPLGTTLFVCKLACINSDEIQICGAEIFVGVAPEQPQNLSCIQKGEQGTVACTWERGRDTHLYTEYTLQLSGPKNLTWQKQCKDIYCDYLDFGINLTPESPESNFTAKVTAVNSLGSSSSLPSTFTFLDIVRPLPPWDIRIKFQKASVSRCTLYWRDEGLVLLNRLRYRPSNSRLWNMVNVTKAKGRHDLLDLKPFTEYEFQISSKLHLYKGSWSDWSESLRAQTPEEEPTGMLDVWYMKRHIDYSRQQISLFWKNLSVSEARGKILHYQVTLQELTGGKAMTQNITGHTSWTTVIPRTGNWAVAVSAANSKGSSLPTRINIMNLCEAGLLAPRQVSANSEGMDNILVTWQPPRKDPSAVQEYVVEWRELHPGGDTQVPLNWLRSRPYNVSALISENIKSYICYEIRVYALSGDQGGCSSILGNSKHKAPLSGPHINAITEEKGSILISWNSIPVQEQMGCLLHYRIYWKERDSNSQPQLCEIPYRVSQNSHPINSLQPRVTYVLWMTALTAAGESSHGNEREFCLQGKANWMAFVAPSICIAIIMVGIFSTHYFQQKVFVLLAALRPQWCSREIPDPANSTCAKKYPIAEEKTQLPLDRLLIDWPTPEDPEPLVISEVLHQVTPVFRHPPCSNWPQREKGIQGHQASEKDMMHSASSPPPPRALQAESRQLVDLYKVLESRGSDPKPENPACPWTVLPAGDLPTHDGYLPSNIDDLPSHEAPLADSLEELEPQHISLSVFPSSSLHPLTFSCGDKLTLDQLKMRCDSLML
Assay Overview: cell-based or functional assay
Parameter Measured: Max Absorbance
Output: the number by itself.

Consider the worked cases shown below.
- Binder: "DGL569 (bispecific antibody, V domains shown, 233B1 x 19B2) V domain 1: QVQLVESGGGLVQAGGSLRLSCAASRSISSFNEMAWYRQAPGEQRELVATIVSTVGFTNYADSVKGRFTISRDNAKNTVYLQMNSLKAEDTAVYYCNARRISTDYWGQGTQVTVEP V domain 2: QVQLVESGGGLVQPGGSLRLSCAASGFTFSNYAMSWVRQAPGKGLEWVSAINSDGTSTSYADSVKGQFTISRDNAKNTLYLQMNSLKPEDTAVYYCTKWEGDTDSDYKFKDYWGQGTQVTVEP"
  Numeric Value: 1.19
- Binder: "DGL552 (bispecific antibody, V domains shown) V domain 1: QVQLVESGGGLVQAGGSLRLSCAASGRTFGTYAMGWFRQAPGKERDFVARISNSGAFTHYADSVKGRFTISRDNAKNTVYLHMNSLENGDTAAYYCVATRGTNSAYYTRSTMYEYWGQGTQVTVEP V domain 2: QVQLVESGGGLVQAGGSLRLSCAASGRIFSAYRMGWFRQAPGKEREFVAGITWRGQTTYYAASVKGRFTISKDNAKKTVYLQMNSLKPEETAVYYCAVETNGLGRWDRPSEYDYWGQGTQVTVEP"
  Numeric Value: 0.4
- Binder: "DGL515 (bispecific antibody, V domains shown, 97B1 x 85B2) V domain 1: QVQLVESGGGLAQAGGSLRLSCAASGRTFSNDDMAWFRQAPGKEREFVAHIDRNAASTNYADSVKGRFTISRDNAKNTVYLQMTRLKPEDTAVYYCAADPDHFGTTWYQQYTYWGPGTQVTVEP V domain 2: QVQLVESGGGLVQAGGSLRVSCAASGRIPSLNTMAWYRQAPGKQREFVAFITNGGTTNYVDSVEGRFSISRDNTKNAVDLQMNSLKPEDTGVYYCNVQISQYPYNYWGQGTQVTVEP"
  Numeric Value: 0.64
- Binder: "DGL465 (bispecific antibody, V domains shown) V domain 1: QVQLVESGGGLVQAGGSLRLSCAASGRAFSRYSMGWFRQAPGKEREFVAANYWSNGWTDYADTVKGRFSISRDNAKNTVYLQMNSLKPEDTAVYYCAGRSSSIPSADVVGYDYWGQGTQVTVEP V domain 2: QVQLVESGGGLVQPGGSLRLSCAASGFTFEPYDMSWFRQAPGKGPEWVSAIDKGGGAGATYYADSVKGRFTISRDNAKKTLYLQMKSLKPEDTAVYYCAITAGPYSDSTPRVAYRGEGTQVTVEP"
  Numeric Value: 0.69

Inquiry: Quick one: Max Absorbance of DGL482 (bispecific antibody, V domains shown, 67B1 x 64B2) V domain 1: QVQLVESGGGLVQAGGSLRLSCAASARIFNSYAVAWFRQTPGKEREFVASISWSGGSTNYADSVKGRFTISRDNAKNTVFLQMNSLKPADTAVYYCAADRNYYPSVLGKYTYWGQGTQVTVEP V domain 2: QVQLVESGGGLVQPGGSLRLSCAASGFTFSSKAMHWFRQAPGKGLEWVSSINSGGAITYYKDSVKGRFTVSRDNAKNILYLEMNSLKPEDTALYYCATDTDGRTRGQGTQVTVEP ?
Reply text: 0.68

Provenance of the data: patent US20250019450A1
